Attribute Measured: melting point

Sample answers from the record:
{"columns": ["Molecule", "melting point"],
 "data": [
  ["COc1ccccc1OC1CCN(CCCNC(=O)c2cccc3c(=O)c(C)c(-c4ccccc4)oc23)CC1", "154 to 156 °C"],
  ["Cc1ccc(N2C(=O)c3ccccc3NC2c2ccc(=O)[nH]c2)cc1C(F)(F)F (stereo not given)", "250 to 251 °C"],
  ["CN(C)CCCC#Cc1cnc(NC(=O)OC(C)(C)C)nc1", "119 to 120 °C"],
  ["CC(C)CCCC(C)C1CCC2C3CC=C4CC(OC(=O)OCC(N)C(=O)O)CCC4(C)C3CCC12C (stereo not given)", "147 °C"],
  ["O=C(Nc1ccc(Cl)cn1)c1cc(F)ccc1NCC1CCNCC1", "230 to 233 °C"]
]}

Parameters: items (list). Returns: melting point for each item.
1. O=C(CBr)c1ccc(Cl)c(Cl)c1Cl
2. CN(C)C(=O)N(C)C(=O)N1CCN(c2ccc(F)cc2)CC1

Response:
["44 to 46 °C", "83 to 84 °C"]

Provide melting point for all items below, preserving their order.
1. NC(/C=C(/F)P(=O)(O)O)CCc1ccc(Sc2cccc(OCc3ccccc3)c2)cc1Cl (stereo not given)
2. Nc1cccc(-c2ccc(CCN3CCN(c4nccn4-c4ccccc4)CC3)cc2)n1
3. C/C(=C\c1ccc(C(=O)Nc2nnn[nH]2)cc1)c1ccc2c(c1)C(C)(C)CCO2
4. Cc1cn2ccccc2c1[N+](=O)[O-]
5. O=C(O)CCC(CSc1ccc2ccccc2c1)C(=O)O (stereo not given)
6. N#Cc1cc(N)ccc1N1CCCCC1
7. CC(C)(C)OC(=O)NCCCn1c(-c2ccc([N+](=O)[O-])cc2)csc1=Nc1ccccc1
8. CN(C)c1snc2c1c(N)nc(=O)n2Cc1ccccc1

Response:
1. 285 to 288 °C
2. 140 to 142 °C
3. > 250 °C
4. 137 to 139 °C
5. 140 to 142 °C
6. 148 to 149 °C
7. 254 to 257 °C
8. 190 to 195 °C

# batch: return melting point for each of the 5 molecules below
1. COc1cc(C#CC(=O)O)cc(OC)c1OCc1ccccc1
2. COc1ccc2c(c1)CC(=O)C2
3. COc1ccc(C2Cc3cc(C(F)(F)F)ccc3NC(=O)C2CSC)cc1 (stereo not given)
4. O=C(NCCCCCCCCCCCC(=O)OCC12CC3CC(CC(C3)C1)C2)NC12CC3CC(CC(C3)C1)C2
5. Cc1c(O[Si](C)(C)C(C)(C)C)cc(O[Si](C)(C)C(C)(C)C)c(C)c1C(=O)OCc1ccc([N+](=O)[O-])cc1

Response:
["115 to 116 °C", "74 to 78 °C", "224 to 226 °C", "68 °C", "121 to 122 °C"]

* * *

Attribute Measured: melting point

Before answering, review these 8 worked examples.
{"columns": ["Compound", "melting point"],
 "data": [
  ["COc1sc(-c2cc[nH]n2)c2c1C(=O)CC(C)(C)C2", "202 to 204 °C"],
  ["OCc1cn2c(n1)CN=C(c1ccccn1)c1cc(Cl)ccc1-2", "206 to 207 °C"],
  ["CCOC(=O)C1=C(C)NC(C)=C(C(=O)OCCN2CCN(C(c3ccc(C)cc3)c3ccc(C)cc3)CC2)C1c1cccc(C(F)(F)F)c1 (centres undefined)", "74 to 77 °C"],
  ["O=C(O)Cn1c(=O)n2n(c1=O)C(C(=O)O)CCC2 (centres undefined)", "189 to 192 °C"],
  ["Cc1ccc(S(=O)(=O)N[C@@H](C)C(=O)N[C@@H](Cc2ccccc2)C(=O)OCc2ccccc2)cc1", "109 to 110 °C"],
  ["N#Cc1ccc(-c2cccc(C=O)c2O)cc1", "120 to 121 °C"],
  ["C=CC(=O)OCCOc1ccc(-c2nc(-c3ccc(C)cc3C)nc(-c3ccc(C)cc3C)n2)c(O)c1", "128 to 129 °C"],
  ["Cn1nnc(-c2ccc3[nH]cc(C4=CCN(CCN5CCNC5=O)CC4)c3c2)n1", "249 to 252 °C"]
]}

Now for a further compound.
Request: melting point lookup needed for Cn1cc(C2=C(c3c4n(c5ccccc35)CCC(CCN=[N+]=[N-])C4)C(=O)NC2=O)c2ccccc21 (centres undefined) , thanks.
Response: 262 to 264 °C
